MEASUREMENT_TARGET: p53/MDM2 complex (Homo sapiens)
Construct: Test performed on cell lysate of human glioblastoma (GBM) cells U343MG; endogenous in cells; host or cells: U343MG human glioblastoma cells (lysate)
Sequence (Q00987 whole entry, one chain of several): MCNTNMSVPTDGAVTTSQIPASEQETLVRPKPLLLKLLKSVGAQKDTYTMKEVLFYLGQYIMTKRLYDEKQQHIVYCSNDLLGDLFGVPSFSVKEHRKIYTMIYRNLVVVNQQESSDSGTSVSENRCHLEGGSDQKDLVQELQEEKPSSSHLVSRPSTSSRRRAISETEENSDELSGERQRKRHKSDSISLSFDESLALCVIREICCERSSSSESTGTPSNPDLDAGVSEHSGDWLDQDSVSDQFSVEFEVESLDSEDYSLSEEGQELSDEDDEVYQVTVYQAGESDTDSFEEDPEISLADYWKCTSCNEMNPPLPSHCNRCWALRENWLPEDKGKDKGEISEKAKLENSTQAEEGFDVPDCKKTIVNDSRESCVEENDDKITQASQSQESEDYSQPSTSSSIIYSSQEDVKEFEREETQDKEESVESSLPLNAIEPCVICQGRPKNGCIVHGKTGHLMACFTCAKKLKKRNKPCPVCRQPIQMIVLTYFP
RUN_DESCRIPTION: Inhibitory effect on p53/MDM2 complex binding, cell lysate of human glioblastoma U343MG cells
TEST_PARAMETERS: 10 uM; cell lysate of human glioblastoma (GBM) cells U343MG; read-out: % inhibition at 10 uM of p53/MDM2 complex binding
REPORTED_ENDPOINT: inhibition at 10 µM (%)

[A] CCNC(=O)COc1ccc2c(c1)S(=O)(=O)Cc1c-2[nH]c2ccc(F)cc12 [RA13]
[B] CN(C)CCCn1c2ccc(Cl)cc2c2ccc3cc(OCC(=O)O)ccc3c21 [RM58]
Task: Just tell me: smaller inhibition at 10 µM value, A or B ? The response must carry the label of the picked entry.
Result: A
(A: 22%, B: 58%)

---

MEASUREMENT_TARGET: p53/MDM2 complex (Homo sapiens)
Construct: Test performed on cell lysate of human glioblastoma (GBM) cells U343MG; endogenous in cells; host or cells: U343MG human glioblastoma cells (lysate)
RUN_DESCRIPTION: Inhibitory effect on p53/MDM2 complex binding, cell lysate of human glioblastoma U343MG cells
TEST_PARAMETERS: cell lysate of human glioblastoma (GBM) cells U343MG
REPORTED_ENDPOINT: IC50 (nM)

Task: Return reported IC50; argument: CC(=O)OCC1=C(C(=O)OC(C)(C)C)N2C(=O)C(NC(=O)COc3ccc4c(c3)CCc3c-4[nH]c4ccc(Cl)cc34)C2SC1 (stereo not shown) [RM36]
Result: 280

[I] CC(=O)OCC1=C(C(=O)OC(C)(C)C)N2C(=O)C(NC(=O)COc3ccc4c(c3)S(=O)(=O)Cc3c-4[nH]c4ccc(F)cc34)C2SC1 (stereo not shown) [RA25]
[II] COc1ccc2[nH]c3c(c2c1)CCCc1cc(OCC(=O)O)ccc1-3 [RA2]
Task: Just tell me: smaller IC50 value, I or II ? The response must carry the label of the picked entry.
Result: I
(I: 143 nM, II: 2900 nM)

---

MEASUREMENT_TARGET: p53/MDM2 complex (Homo sapiens)
Construct: Test performed on cell lysate of human glioblastoma (GBM) cells U343MG; endogenous in cells; host or cells: U343MG human glioblastoma cells (lysate)
RUN_DESCRIPTION: Inhibitory effect on p53/MDM2 complex binding, cell lysate of human glioblastoma U343MG cells
TEST_PARAMETERS: cell lysate of human glioblastoma (GBM) cells U343MG
REPORTED_ENDPOINT: IC50 (nM)

Solved entries (count: 3):
Task: Return reported IC50; argument: COc1ccc(COC(=O)C2N3C(=O)C(NC(=O)COc4ccc5c(c4)OCc4c-5[nH]c5ccc(Br)cc45)C3SC2(C)C)cc1 (stereo not drawn)
Result: 375

Task: Input CCNC(=O)C(CCCNC(=O)OCc1ccccc1)NC(=O)CC1C(NC(=O)COc2ccc3c(c2)S(=O)(=O)NCc2c-3[nH]c3ccc(F)cc23)C(=O)N1CC(=O)OCc1ccc(OC)cc1 (stereo not drawn)
Result: 223

Task: Input CC(=O)OCC1=C(C(=O)OC(C)(C)C)N2C(=O)[C@@H](NC(=O)COc3ccc4c(c3)CCc3c-4[nH]c4ccc(F)cc34)[C@H]2SC1
Result: 222

[I] CC(=O)OCC1=C(C(=O)OC(C)(C)C)N2C(=O)[C@@H](NC(=O)COc3ccc4c(c3)CCc3c-4[nH]c4cccc([N+](=O)[O-])c34)[C@H]2SC1 [GA09a]
[II] CNC(=O)C(CCCNC(=O)OCc1ccccc1)NC(=O)COc1ccc2c(c1)OCc1c-2[nH]c2ccc(F)cc12 (stereo not drawn)
[III] CC(=O)OCC1=C(C(=O)OC(C)(C)C)N2C(=O)[C@@H](NC(=O)COc3ccc4c(c3)CCc3c-4[nH]c4cc([N+](=O)[O-])ccc34)[C@H]2SC1 [GA09b]
Task: Hello, I need these entries ordered by IC50, highest reading first. Thanks! Please respond by ranking the labels in the order requested.
Result: II, I, III
(II: 1350 nM, I: 650 nM, III: 225 nM)
